Where these numbers come from: the supplement of paper PMC11780869

System: Bacillus subtilis
Test summary: cleaved RNA product abundance (RNA/gDNA barcode ratio) relative to median wild-type variant (ratio to wild type); higher = more accumulation of the downstream cleavage product
Applied conditions: experiment (reporter, strain, medium): exp 2b: truncated aprE reporter, strain BJT200; cleavage site: cggR-gapA (positions -7 to +36 mutated)
The following sequences are listed with their measured cleaved RNA product abundance values.
Just the number.

# input Return reported cleaved RNA product abundance; argument: ACAGACGAAGGAGCCGCAAAGAAGTTATTCAGGAATGAATAATCCCTCAATATAAATATCTCTCACTTATTTAAA
# output 0.132

# input Return reported cleaved RNA product abundance; argument: ACAGACGAAGGAGCCGCAAAGAAGTTATAAAAGGATGAATAATCCCTCAATATAAATATCTCTCACTTATTTAAA
# output 0.153

# input Return reported cleaved RNA product abundance; argument: ACAGACGAAGGAGCCGCAAATAAGTTATAAAGGGATGTATAATCCCTCAATATAAATATCTCTCACTTATTTAAA
# output 0.384

# input Return reported cleaved RNA product abundance; argument: ACAGACGAAGGAGCCGCAAAGAAATTATTAACGGATGAATAATCCCTCAATATAAATATCTCTCACTTATTTAAA
# output 0.142

# input Return reported cleaved RNA product abundance; argument: ACAGACGAAGGAGCCGCAAAGAAGTTATTAAGGGATGAATACTCCCTCAATATAAAAATCTCTCACTTATTTAAA
# output 0.511

# input Return reported cleaved RNA product abundance; argument: ACAGACGAAGGAGCCGCAATGAAGTTATTAAAGGATGAATAATCCCTCAATATAAATATCTCTCACTTATTTAAA
# output 0.181

# input Return reported cleaved RNA product abundance; argument: ACAGACGAAGGAGCCGCAAAGAAGTTATTAAGGGATGAATAATCCCTAAATATAAACATCTCTCACTTATTTAAA
# output 0.509

# input Return reported cleaved RNA product abundance; argument: ACAGACGAAGGAGCCGCAAACAAGTTATTAAGGTATGAATAATCCCTCAATATAAATATCTCTCACTTATTTAAA
# output 0.102

# input Return reported cleaved RNA product abundance; argument: ACAGACGAAGGAGCCGCAAAGAAGTTATTAAGGGATGAAAAATCCATCAATATAAATATCTCTCACTTATTTAAA
# output 0.141

# input Return reported cleaved RNA product abundance; argument: ACAGACGAAGGAGCCGCAAAGAAGTTGTTAAGGGATGAATAATCCCTCAATATAAATATCTCTCACTTATTTAAA
# output 0.357

# input Return reported cleaved RNA product abundance; argument: ACAGACGAAGGAGCCGCAAAGAAGTTATTAAGGTATGAATGATCCCTCAATATAAATATCTCTCACTTATTTAAA
# output 0.0901

# input Return reported cleaved RNA product abundance; argument: ACAGACGAAGGAGCCGCAAAGAAGTTATTAAGGGATGACTAATCCCTCAAAATAAATATCTCTCACTTATTTAAA
# output 0.192

# input Return reported cleaved RNA product abundance; argument: ACAGACGAAGGAGCCGCATAGAAGTTATTAAGGGATGAATAATCCCTCAATTTAAATATCTCTCACTTATTTAAA
# output 0.195

# input Return reported cleaved RNA product abundance; argument: ACAGACGAAGGAGCCGCAAAGAAGTTATTAAGGGATGAATAATCCCTCAATGTAAATATCTCTCACTTATTTAAA
# output 0.139

# input Return reported cleaved RNA product abundance; argument: ACAGACGAAGGAGCCGCAAAGGAGTTATTAAGGGATGAATAATCCCTCAATAAAAATATCTCTCACTTATTTAAA
# output 0.165
